# system-under-test: Voltage-gated inwardly rectifying potassium channel KCNH2 (Homo sapiens)
# Sequence (Q12809 whole entry): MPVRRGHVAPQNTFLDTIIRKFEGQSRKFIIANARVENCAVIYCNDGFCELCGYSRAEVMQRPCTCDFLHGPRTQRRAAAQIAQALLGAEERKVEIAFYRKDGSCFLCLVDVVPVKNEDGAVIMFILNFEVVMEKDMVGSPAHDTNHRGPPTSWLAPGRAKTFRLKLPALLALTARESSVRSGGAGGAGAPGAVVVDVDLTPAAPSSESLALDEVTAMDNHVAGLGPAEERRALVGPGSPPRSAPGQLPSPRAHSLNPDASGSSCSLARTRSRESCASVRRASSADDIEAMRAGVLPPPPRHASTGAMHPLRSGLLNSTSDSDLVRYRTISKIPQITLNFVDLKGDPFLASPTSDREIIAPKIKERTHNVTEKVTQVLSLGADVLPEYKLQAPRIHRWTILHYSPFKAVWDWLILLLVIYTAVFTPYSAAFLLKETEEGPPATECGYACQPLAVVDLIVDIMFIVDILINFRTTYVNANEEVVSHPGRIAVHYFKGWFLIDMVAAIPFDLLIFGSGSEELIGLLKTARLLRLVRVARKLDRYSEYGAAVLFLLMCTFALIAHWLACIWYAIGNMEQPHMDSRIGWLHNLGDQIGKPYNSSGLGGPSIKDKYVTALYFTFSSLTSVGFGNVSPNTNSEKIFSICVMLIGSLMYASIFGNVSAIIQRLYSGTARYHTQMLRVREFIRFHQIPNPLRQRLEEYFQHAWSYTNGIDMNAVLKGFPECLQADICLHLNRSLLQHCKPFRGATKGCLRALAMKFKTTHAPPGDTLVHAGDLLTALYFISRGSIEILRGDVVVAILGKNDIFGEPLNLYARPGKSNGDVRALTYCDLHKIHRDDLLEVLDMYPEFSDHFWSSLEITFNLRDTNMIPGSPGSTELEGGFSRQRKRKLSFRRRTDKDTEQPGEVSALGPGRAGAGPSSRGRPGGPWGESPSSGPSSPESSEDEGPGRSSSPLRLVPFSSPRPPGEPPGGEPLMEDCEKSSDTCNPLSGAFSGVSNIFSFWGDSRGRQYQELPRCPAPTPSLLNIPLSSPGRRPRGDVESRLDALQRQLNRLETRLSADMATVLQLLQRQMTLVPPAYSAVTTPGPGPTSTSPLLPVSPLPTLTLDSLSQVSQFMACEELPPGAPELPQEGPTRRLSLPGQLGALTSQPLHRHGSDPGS
# assay-details: Inhibition of human ERG expressed in CHO cells by automated patch clamp method
# Type: toxicity, cell-based
pIC50: −log10 of the molar value.
measurement-kind: pIC50

> print(dat)
                                chem.smiles  measurement.kind  test.value
1  O=C1CO[C@H]2CCN(C(=O)N3CCC(Cc4ccc(C(F)(F)F)cc4)CC3)C[C@H]2N1             pIC50        5.11

* * *

# assay-details: Cmax in C57BL/6 mouse at 5.1 mg/kg, po measured upto 7 hrs by LC-MS/MS analysis
# test-conditions: in vivo
measurement-kind: Cmax

> print(dat)
                                   molecule  test.value
1  O=C1CO[C@H]2CCN(C(=O)N3CCC(Cc4ccc(C(F)(F)F)cc4)CC3)C[C@H]2N1 (racemic)   896 ng/mL

Origin of the recorded values: ChEMBL document CHEMBL6127097
